// data source = paper PMC4042160

biological target: LRRK2 phospho-Ser935 (Homo sapiens); construct: expressed in transfected cells; experiment: Cellular LRRK2 phosphoserine 935 dephosphorylation spotblot assay in SH-SY5Y cells stably expressing 3xFlag-LRRK2; type: cell-based; conditions: @ 5 μM for 2 h; SH-SY5Y stably expressing LRRK2; pS935/total LRRK2
Categorize each record by its Phosphorylation level relative to solvent (%) (cellular pS935 assay) using low = under 70%, moderate = from 70% up to 80%, high = 80% and over

1. CC(C)(C)c1cc(C=C(C#N)C#N)cc(Br)c1O
high
2. N#C/C(=C(/N)SC1C=CC=CC1)c1cccc(C(O)c2ccncc2)c1 (stereo not drawn)
high
3. CC[n+]1c(/C=C/N(C)c2ccccc2)n(-c2ccccc2)c2ccc(-c3nc4ccccc4s3)cc21.[I-]
moderate
4. Cc1cc2ncc(-c3ccccc3)nc2cc1C
low
5. COc1cc2ncnc(Nc3ccc(OCc4ccccc4)cc3)c2cc1OC
low

* * *

biological target: LRRK2 phospho-Ser935 (Homo sapiens, UniProt Q5S007); construct: expressed in transfected cells; assay: Cellular LRRK2 phosphoserine 935 dephosphorylation spotblot assay in SH-SY5Y cells stably expressing 3xFlag-LRRK2; type: cell-based; conditions: @ 5 μM for 2 h; SH-SY5Y stably expressing LRRK2; pS935/total LRRK2
Sequence (Q5S007 whole entry): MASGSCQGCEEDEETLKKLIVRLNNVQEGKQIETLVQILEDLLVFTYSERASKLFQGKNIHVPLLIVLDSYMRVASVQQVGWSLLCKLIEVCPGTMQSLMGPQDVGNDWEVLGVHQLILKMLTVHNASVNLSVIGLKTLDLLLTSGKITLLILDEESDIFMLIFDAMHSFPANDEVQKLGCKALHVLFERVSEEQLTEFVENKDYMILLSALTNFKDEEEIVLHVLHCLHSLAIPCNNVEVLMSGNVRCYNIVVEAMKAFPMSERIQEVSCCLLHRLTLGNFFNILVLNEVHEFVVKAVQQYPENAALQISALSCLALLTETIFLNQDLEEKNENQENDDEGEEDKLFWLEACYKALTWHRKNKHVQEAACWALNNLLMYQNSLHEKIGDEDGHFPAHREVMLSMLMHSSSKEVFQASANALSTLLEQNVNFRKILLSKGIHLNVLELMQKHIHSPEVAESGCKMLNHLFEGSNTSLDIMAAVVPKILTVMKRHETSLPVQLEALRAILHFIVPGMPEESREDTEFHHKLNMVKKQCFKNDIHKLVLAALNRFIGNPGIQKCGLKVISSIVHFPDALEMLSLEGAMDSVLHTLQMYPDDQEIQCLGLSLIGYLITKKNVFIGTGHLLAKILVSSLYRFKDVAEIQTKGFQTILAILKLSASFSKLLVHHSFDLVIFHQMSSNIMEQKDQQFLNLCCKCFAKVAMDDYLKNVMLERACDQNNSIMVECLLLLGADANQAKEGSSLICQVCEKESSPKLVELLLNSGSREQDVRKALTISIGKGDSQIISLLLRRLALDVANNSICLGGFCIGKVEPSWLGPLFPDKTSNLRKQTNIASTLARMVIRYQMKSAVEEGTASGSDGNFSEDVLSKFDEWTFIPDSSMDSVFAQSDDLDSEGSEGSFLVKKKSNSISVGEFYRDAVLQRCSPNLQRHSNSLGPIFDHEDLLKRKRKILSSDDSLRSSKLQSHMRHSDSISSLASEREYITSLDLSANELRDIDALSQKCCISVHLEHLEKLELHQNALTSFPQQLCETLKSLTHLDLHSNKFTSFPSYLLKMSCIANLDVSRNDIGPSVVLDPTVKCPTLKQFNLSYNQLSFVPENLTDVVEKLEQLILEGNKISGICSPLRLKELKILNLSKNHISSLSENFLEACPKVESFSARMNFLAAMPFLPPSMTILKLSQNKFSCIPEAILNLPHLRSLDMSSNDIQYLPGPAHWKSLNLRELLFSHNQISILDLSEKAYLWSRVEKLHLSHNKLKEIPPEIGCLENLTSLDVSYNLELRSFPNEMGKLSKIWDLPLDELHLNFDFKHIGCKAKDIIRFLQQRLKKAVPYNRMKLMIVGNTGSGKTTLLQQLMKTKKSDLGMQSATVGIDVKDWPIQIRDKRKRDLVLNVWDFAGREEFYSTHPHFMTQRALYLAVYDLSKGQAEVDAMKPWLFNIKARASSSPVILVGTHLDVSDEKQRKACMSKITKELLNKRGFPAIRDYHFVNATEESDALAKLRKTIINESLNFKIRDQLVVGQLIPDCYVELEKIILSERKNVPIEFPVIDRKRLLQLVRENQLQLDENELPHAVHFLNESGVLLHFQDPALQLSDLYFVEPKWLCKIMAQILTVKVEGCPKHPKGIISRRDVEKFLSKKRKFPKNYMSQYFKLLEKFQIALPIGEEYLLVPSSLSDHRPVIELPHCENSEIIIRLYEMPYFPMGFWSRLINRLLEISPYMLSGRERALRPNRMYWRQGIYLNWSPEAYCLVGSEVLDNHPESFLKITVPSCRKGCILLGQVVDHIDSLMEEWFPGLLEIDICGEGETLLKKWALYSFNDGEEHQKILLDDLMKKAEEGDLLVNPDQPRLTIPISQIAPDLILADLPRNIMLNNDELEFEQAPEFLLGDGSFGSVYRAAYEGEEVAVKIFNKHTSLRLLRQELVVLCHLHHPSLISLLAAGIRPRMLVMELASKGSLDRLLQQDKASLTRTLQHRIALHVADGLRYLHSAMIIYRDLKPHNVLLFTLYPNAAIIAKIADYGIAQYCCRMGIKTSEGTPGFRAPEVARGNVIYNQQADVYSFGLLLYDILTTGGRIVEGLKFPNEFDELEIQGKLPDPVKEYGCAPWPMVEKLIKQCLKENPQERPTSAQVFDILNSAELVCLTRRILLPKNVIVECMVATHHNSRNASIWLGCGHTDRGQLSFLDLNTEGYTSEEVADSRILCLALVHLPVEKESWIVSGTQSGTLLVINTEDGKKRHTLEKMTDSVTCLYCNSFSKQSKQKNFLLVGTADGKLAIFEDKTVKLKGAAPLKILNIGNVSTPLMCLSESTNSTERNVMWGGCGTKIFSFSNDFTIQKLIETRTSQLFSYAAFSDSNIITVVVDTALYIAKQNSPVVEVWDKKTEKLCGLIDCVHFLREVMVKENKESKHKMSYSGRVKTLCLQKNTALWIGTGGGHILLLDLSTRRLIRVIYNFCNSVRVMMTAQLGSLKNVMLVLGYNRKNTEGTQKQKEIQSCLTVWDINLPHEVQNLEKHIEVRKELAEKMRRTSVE
Documented Phosphorylation level relative to solvent (%) (cellular pS935 assay) across a set of compounds
Test readout: Phosphorylation level relative to solvent (%) (cellular pS935 assay)

1) CCOc1nc(NC(=O)Cc2cc(OC)ccc2OC)cc(N)c1C#N [JNK inhibitor VIII]
93.08
2) Cl.Cl.O=S(=O)(NCCNC/C=C/c1ccc(Br)cc1)c1cccc2cnccc12 [H-89, Dihydrochloride]
155.11
3) O=C1C(Cl)=C(N2C(=O)CCC2=O)C(=O)c2ccccc21 [MEK inhibitor II]
108.79
4) Nc1[nH]nc2nnc(-c3c(-c4ccccc4)nn4ccccc34)cc12 [ERK inhibitor II, FR180204, FR180204]
65.88
5) Ic1cccc(CSc2nnc(-c3ccncc3)o2)c1 [GSK-3b inhibitor II]
84.51
6) CC(C)(C)n1nc(Cc2cccc3ccccc23)c2c(N)ncnc21 [PP1 analog II, 1NM-PP1, 1NM-PP1]
68.59
7) CO[C@H]1C[C@@H]2CC[C@@H](C)[C@@](O)(O2)C(=O)C(=O)N2CCCC[C@H]2C(=O)O[C@H]([C@H](C)C[C@@H]2CC[C@@H](O)[C@H](OC)C2)CC(=O)[C@H](C)/C=C(\C)[C@@H](O)[C@@H](OC)C(=O)[C@H](C)C[C@H](C)/C=C/C=C/C=C/1C [Rapamycin]
65.24

* * *

target: GST-tagged truncated LRRK2 containing residues 970 to 2527 (Homo sapiens); construct: GST-tagged truncated LRRK2 containing residues 970 to 2527 (Life Technologies); purchased Life Technologies; assay: In vitro LRRKtide peptide-substrate kinase assay, single dose testing (10 μM); format: biochemical; conditions: LRRKtide assay @ 10 μM inhibitor; GST-LRRK2 970-2527; 10 μM ATP; mean, N = 3; solvent control = 100%
Sequence (Q5S007 970-2527): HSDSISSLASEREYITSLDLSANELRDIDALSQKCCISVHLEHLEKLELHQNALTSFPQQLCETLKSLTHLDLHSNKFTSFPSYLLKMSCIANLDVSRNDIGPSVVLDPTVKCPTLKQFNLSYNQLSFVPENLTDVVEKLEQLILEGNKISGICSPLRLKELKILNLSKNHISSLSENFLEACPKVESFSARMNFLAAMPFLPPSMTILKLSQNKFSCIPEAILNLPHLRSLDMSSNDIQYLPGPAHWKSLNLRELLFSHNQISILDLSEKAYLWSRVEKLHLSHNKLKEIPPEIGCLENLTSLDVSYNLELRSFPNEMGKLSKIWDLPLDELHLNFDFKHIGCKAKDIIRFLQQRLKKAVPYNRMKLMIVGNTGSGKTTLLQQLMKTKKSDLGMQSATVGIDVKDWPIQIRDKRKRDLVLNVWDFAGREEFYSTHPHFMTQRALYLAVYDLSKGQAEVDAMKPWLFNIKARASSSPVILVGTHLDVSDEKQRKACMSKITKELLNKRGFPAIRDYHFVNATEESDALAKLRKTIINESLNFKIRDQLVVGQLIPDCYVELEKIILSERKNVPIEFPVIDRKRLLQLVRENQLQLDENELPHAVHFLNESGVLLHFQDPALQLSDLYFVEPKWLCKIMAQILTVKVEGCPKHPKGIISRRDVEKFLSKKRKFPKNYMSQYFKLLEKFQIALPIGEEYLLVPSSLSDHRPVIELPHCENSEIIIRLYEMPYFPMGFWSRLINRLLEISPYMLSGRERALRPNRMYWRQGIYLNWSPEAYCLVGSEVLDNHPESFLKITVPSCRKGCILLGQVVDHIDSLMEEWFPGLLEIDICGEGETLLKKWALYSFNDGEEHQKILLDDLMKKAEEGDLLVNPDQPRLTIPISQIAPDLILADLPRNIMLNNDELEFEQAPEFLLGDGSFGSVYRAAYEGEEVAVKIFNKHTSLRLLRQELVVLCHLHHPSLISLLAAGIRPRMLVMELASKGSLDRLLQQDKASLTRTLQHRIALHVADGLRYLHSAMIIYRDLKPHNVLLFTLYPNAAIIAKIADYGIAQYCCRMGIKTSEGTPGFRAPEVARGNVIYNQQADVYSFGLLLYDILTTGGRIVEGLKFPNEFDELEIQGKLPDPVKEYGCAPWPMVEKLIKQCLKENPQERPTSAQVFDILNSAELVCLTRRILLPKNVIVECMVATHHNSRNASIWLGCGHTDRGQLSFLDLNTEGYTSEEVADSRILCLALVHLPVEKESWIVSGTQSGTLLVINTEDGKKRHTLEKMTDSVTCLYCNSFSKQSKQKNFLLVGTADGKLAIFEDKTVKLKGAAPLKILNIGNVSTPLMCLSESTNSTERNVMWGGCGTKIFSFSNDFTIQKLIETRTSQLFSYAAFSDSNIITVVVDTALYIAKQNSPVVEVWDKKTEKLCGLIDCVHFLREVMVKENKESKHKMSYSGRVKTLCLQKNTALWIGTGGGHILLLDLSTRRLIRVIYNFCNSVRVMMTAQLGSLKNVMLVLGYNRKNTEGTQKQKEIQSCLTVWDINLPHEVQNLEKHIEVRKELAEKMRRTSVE
Label 1 when % LRRKtide phosphorylation relative to solvent is at or above 20%; otherwise label 0.

1) Nc1nc(Nc2ccc(S(N)(=O)=O)cc2)nn1C(=O)c1c(F)cccc1F [Aurora kinase/Cdk inhibitor]
0
2) O=c1cc(N2CCNCC2)oc2c(-c3ccccc3)cccc12 [LY 303511]
1
3) O=C1C(Cl)=C(N2C(=O)CCC2=O)C(=O)c2ccccc21 [MEK inhibitor II]
1
4) CCn1cnc2c(Nc3cccc(Cl)c3)nc(N[C@@H]3CCCC[C@@H]3N)nc21 [Cdk1 inhibitor, CGP74514A, CGP74514A]
0
5) COc1cc2ncc(-c3ccccc3)nc2cc1OC [AG 1296]
1
6) COc1ccc2c(c1)/C(=C/c1cnc[nH]1)C(=O)N2 [SU9516]
0
7) CC(C)c1nn(-c2c(Cl)cccc2Cl)c2nc(Cc3ccc(OCCO)cc3)[nH]c(=O)c12 [Cdk/Crk inhibitor]
1
8) COc1ccc(Cl)cc1NC(=O)Nc1cc(C)nc2ccccc12 [IGF-1R inhibitor II]
1
9) Cc1cc2ncc(-c3ccccc3)nc2cc1C [AG 1295]
1
10) Cc1ccc(NC2=CC(=O)c3sc(C)nc3C2=O)cc1 [Cdk4 inhibitor III]
1
11) Nc1[nH]nc2nnc(-c3c(-c4ccccc4)nn4ccccc34)cc12 [ERK inhibitor II, FR180204, FR180204]
0
12) Nc1ccc2ncnc(NCCc3ccc(Oc4ccccc4)cc3)c2c1 [NF-KB activation inhibitor]
1
13) O=c1cc(-c2cccc3c2Sc2ccccc2S3)oc(N2CCOCC2)c1 [ATM kinase inhibitor]
1
14) O=[N+]([O-])/C=C/c1ccc2c(c1)OCO2 [Syk inhibitor III]
1
15) CCCCc1c(-c2ccc(O)cc2)[nH]c2nccnc12 [Aloisine A, RP107, Aloisine A]
1
16) NC(=O)c1ccc(-c2nc(-c3ccc4c(c3)OCCO4)c(-c3ccccn3)[nH]2)cc1 [Casein kinase I inhibitor, D4476, D4476]
1
17) O=C1NC(=O)c2c1c1c3ccccc3[nH]c1c1[nH]c3cc(Br)ccc3c21 [Cdk4 inhibitor]
0
18) CSc1nc(-c2ccnc(NC(C)c3ccccc3)c2)c(-c2ccc(F)cc2)[nH]1 (centres unmarked) [p38 MAP kinase inhibitor III]
1
19) Cc1cncc2cccc(S(=O)(=O)N3CCCN(C(=O)CN)C[C@@H]3C)c12 [Rho kinase inhibitor IV]
0
20) Cc1nc2cc3nc(-c4cccs4)cnc3cc2n1C [AGL 2043]
1
21) O=c1[nH]c2ccccc2n1C1CCN(Cc2ccc(-c3nc4cc5nc[nH]c5cc4nc3-c3ccccc3)cc2)CC1 [Akti-1/2]
1
22) Cc1cccc(-c2[nH]c(C(C)(C)C)nc2-c2ccc3c(c2)OCO3)n1 [TGF-b RI inhibitor III]
1
23) O=C1Nc2ccccc2/C1=C\c1c(Cl)[nH]c2ccccc12 [Cdk1 inhibitor]
1
24) Fc1ccc(-c2nc3n(c2-c2ccncc2)CCS3)cc1 [SKF-86002]
1
25) CC(C)(C)n1nc(Cc2cccc3ccccc23)c2c(N)ncnc21 [PP1 analog II, 1NM-PP1, 1NM-PP1]
1
26) O=C1Nc2ccc(Br)cc2/C1=C/c1cc2c([nH]1)CCCC2 [VEGF receptor 2 kinase inhibitor II]
0
27) O=C1c2ccccc2-c2n[nH]c3cccc1c23 [JNK inhibitor II]
0
28) CCOC(=O)c1c(C)[nH]c(/C=C2\C(=O)Nc3ccccc32)c1C [VEGF receptor 2 kinase inhibitor I]
1
29) O=C1NC(=O)c2cc(Nc3ccc(F)cc3)c(Nc3ccc(F)cc3)cc21 [PKCbII/EGFR inhibitor]
1
30) CO[C@H]1[C@@H](OC)C[C@H](C)[C@@H](OC)C2=CC(=O)C=C(NC(=O)/C(C)=C/C=C\[C@H](OC)[C@@H](OC(N)=O)/C(C)=C/[C@@H]1C)C2=O [Herbimycin A, Streptomyces sp., Herbimycin A]
1
31) CCCCc1c(-c2ccc(OC)cc2)[nH]c2nccnc12 [Aloisine, RP106]
0
32) C[C@@H](N)[C@H]1CC[C@H](C(=O)Nc2ccncc2)CC1 [ROCK inhibitor, Y-27632, Y-27632]
0
